The reported numbers originate from patent US8772499B2.

assay: In vitro rat microsomal stability assay; type: in vitro ADME, rat (Sprague-Dawley); conditions: Sprague-Dawley, rat, microsomes, 0.5 h, 0.5 μM, pH 7.4
Recorded RAT MICROSOMAL STABILITY (% REMAINING AFTER 30 MINUTES) values for a group of compounds are listed next.

The examples below pair each entry with its known result.
CC(C)(C)OC(=O)N1CCC(C2(C(O)c3ccccn3)CCC2)CC1 (stereo not shown) :: <0.01%
OC(C1CCc2cccnc21)C1(c2cccc(OC(F)(F)F)c2)CCC1 (stereo not shown) [Example 189] :: <0.01%
OC(C1CCc2cccnc21)C1(c2ccccc2C(F)(F)F)CCC1 (stereo not shown) [Example 198] :: <0.01%
OC1CC(c2ccc(Cl)c(Cl)c2)(C(O)c2ncccn2)C1 (single isomer, unassigned) [Example 313] :: >85%
CC1(O)CC(c2cccc(OC(F)(F)F)c2)(C(O)c2ccccn2)C1 (stereo not shown) :: >85%

**Q:** Tell me the measured RAT MICROSOMAL STABILITY (% REMAINING AFTER 30 MINUTES) of OC1CC(c2ccc(C(F)(F)F)cc2)(C(O)c2ccccn2)C1 (stereo not shown) , please.
**A:** >85%

**Q:** Next compound: OC1CC(c2cc(C(F)(F)F)ccn2)(C(O)c2ccccn2)C1 (stereo not shown) [Example 282]
**A:** >85%
